assay_system: human serum albumin (HSA) (Homo sapiens)
Construct: purchased ChromTech HSA 5 µm (3.0 × 50 mm) column
Sequence (P02768 25-609): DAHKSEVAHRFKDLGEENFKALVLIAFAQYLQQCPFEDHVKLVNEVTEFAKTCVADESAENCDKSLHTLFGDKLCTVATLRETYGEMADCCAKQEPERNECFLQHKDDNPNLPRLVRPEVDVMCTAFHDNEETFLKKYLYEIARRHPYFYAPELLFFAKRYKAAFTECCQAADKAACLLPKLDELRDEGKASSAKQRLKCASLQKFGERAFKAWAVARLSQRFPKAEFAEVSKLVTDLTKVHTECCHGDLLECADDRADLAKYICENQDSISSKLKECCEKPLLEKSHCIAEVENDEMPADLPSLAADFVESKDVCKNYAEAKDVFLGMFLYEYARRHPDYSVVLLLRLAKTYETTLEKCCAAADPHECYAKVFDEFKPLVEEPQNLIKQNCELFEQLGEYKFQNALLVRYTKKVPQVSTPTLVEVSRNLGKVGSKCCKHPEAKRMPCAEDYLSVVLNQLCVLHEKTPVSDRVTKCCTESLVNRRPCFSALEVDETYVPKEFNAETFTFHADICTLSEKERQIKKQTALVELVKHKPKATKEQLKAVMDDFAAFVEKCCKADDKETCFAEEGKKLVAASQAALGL
experiment: Human serum albumin (HSA) chromatography for %PPB
Type: in vitro ADME
measurement_conditions: human serum albumin (HSA) coated HPLC column, read-out: %PPB (percentage of plasma protein binding) (converted)
recorded_metric: fraction unbound at 0.5 mg/mL

>  <compound>
CCC(C)N(C)C(=O)c1cc2ccccc2c(-c2ccccc2Cl)n1 (centres unmarked) [PK11195 1, reference compound]

>  <fraction unbound at 0.5 mg/mL>
0.085

$$$$
>  <compound>
CCN(CC)C(=O)c1nc2ccccc2c(-c2ccccc2)c1CF [AB5186 6]

>  <fraction unbound at 0.5 mg/mL>
0.103

$$$$

---

assay_system: TSPO (Rattus norvegicus)
Construct: Whole brains from male Sprague-Dawley rats (200–300 g) were obtained
experiment: Competition binding assay, displacement of [3H]-PK11195 in rat brain homogenates
measurement_conditions: displacement of [3H]-PK11195, rat brain homogenates; mean ± SD of three independent experiments
recorded_metric: pKi
// field semantics: pKi = negative decimal log of concentration (mol/L)

IN: Quote TSPO (Rattus norvegicus) pKi for entry CCN(CC)C(=O)c1nc2ccccc2c(-c2ccccc2)c1CF [AB5186 6] .
OUT: 8.55
